A compilation of published pIC50 results with Serine/threonine-protein kinase B-raf (Homo sapiens).
pIC50: −log10 of the molar value.

Recorded results for 3 molecules are shown here.
                                   molecule  metricname  valueobserved
0  Cc1ccc(NC(=O)c2cccc(C(C)(C)C#N)c2)cc1N1CC(c2ccccc2)OC1=O (stereo not shown)       pIC50   7.00 to 7.30
1  c1cnc(OC2CCCC2)c(CNc2ncc(Cc3c[nH]c4ncncc34)cn2)c1       pIC50         ≥ 5.00
2  O=C(c1c(F)ccc(NS(=O)(=O)c2cc(F)ccc2F)c1F)c1c[nH]c2ncc(Cl)cc12       pIC50         > 8.00

Req: Recall the recorded pIC50 for Cc1ccc(NC(=O)c2cccc(C(C)(C)C#N)c2)cc1-n1c(=O)n(C)c2ccccc21 with Serine/threonine-protein kinase B-raf (Homo sapiens) and state it.
Resp: 7.00 to 7.30

Req: Recall the recorded pIC50 for CCCS(=O)(=O)Nc1ccc(F)c(C(=O)c2c[nH]c3ncc(-c4ccc(S(N)(=O)=O)cc4)cc23)c1F with Serine/threonine-protein kinase B-raf (Homo sapiens) and state it.
Resp: ≥ 5.00

Req: Recall the recorded pIC50 for CCC(C)S(=O)(=O)Nc1ccc(F)c(C(=O)c2c[nH]c3nccc(OC)c23)c1F (stereo not shown) with Serine/threonine-protein kinase B-raf (Homo sapiens) and state it.
Resp: ≥ 5.00

Req: Recall the recorded pIC50 for Cn1cc(S(=O)(=O)Nc2cccc(C(=O)c3c[nH]c4ncc(C#N)cc34)c2F)cn1 with Serine/threonine-protein kinase B-raf (Homo sapiens) and state it.
Resp: ≥ 5.00

Req: Recall the recorded pIC50 for COc1ncnc2[nH]cc(Cc3ccc(NCc4ccc(C(F)(F)F)nc4)nc3F)c12 with Serine/threonine-protein kinase B-raf (Homo sapiens) and state it.
Resp: ≥ 5.00
